- system: Rac GTPase-activating protein 1 (Homo sapiens)
- assayProtocol: blockers of MgcRacGAP-driven Rac1 GTP hydrolysis – biochemical, ADP Hunter fluorescence, primary and confirmatory, confirmation (AID 624330);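 further: fluorescence reports GDP produced by GAP-driven GTP hydrolysis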
- conditionContext: MgcRacGAP-stimulated Rac1 GTP hydrolysis, at 30 µM, active compounds read high, GST-tagged Rac1 F28L mutant substrate
Screen size: about 340,000 compounds; about 2,100 (0.62%) were called active. Not all results are given here. Entries with a potency or affinity are not part of this list.
Measured inhibition, listed per entry.
Just the number in %, nothing appended.

Worked cases, answers included:
COc1ccc(CCNc2ccc(S(=O)(=O)N3CCN(C)CC3)cc2[N+](=O)[O-])cc1	1.77
Cc1cc(C(=O)CSc2ccc3c(c2)OCCO3)c(C)n1C1CC1	6.62
COc1ccccc1CNc1cc(-c2ccccc2)ccc1OC	7.7
CC(C)NCC(O)COCCOc1ccc(Cl)cc1 (configuration not stated)	-1.4
COc1ccc2c(CC(=O)NNC(=O)c3cccs3)coc2c1	5.91

GET /values?readout=inhibition&system=Rac GTPase-activating protein 1 (Homo sapiens)&item= "COc1ccc(OCC#CCNC(C)(C)C)cc1"
18

GET /values?readout=inhibition&system=Rac GTPase-activating protein 1 (Homo sapiens)&item= "O=C(CN(Cc1ccco1)S(=O)(=O)c1ccccc1)N/N=C/c1ccccc1C(=O)O"
8.11

----------
- system: Rac GTPase-activating protein 1 (Homo sapiens)
- assayProtocol: blockers of MgcRacGAP-driven Rac1 GTP hydrolysis – biochemical, ADP Hunter fluorescence, primary and confirmatory, confirmation (AID 624330);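 further: fluorescence reports GDP produced by GAP-driven GTP hydrolysis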
- conditionContext: MgcRacGAP-stimulated Rac1 GTP hydrolysis, at 30 µM, active compounds read high, GST-tagged Rac1 F28L mutant substrate
The campaign covered roughly 340,000 compounds. About 2,100 (0.62%) were called active. The list is a sample of the results. Entries with a potency or affinity are not part of this list.
Measured inhibition, listed per entry.
Just the number in %, nothing appended.

CC(=O)Oc1ccc2oc(/C=C/N(C)C)c([N+](=O)[O-])c2c1	16.9
Cc1cccc(NC(=O)CN2C(=O)NC(C)(c3ccc4c(c3)OCO4)C2=O)c1 (configuration not stated)	3.23
COc1ccc(NC(=O)C[C@H]2C(=O)N(c3ccc(Br)cc3)C[C@@H]2c2ccc(OC)cc2)cc1	15.9

Returns the measured inhibition for the input compound. Input: "O=C(N/N=C/c1cccc(F)c1)c1csc2c1CCCC2"
11.6

Returns the measured inhibition for the input compound. Input: "CC(=C/c1ccccc1)/C=N/n1c(C)n[nH]c1=S"
15.2

Returns the measured inhibition for the input compound. Input: "CN1/C(=C\C(=O)c2cccc([N+](=O)[O-])c2)Sc2ccccc21"
10.8

Returns the measured inhibition for the input compound. Input: "COCCN(C(=O)Cc1coc2cc(C)c(C)cc12)c1c(N)n(Cc2ccccc2)c(=O)[nH]c1=O"
0.31

Returns the measured inhibition for the input compound. Input: "CC(=O)Nc1ccc(S(=O)(=O)N2CCC(N3CCCC3)CC2)cc1"
18.2

Returns the measured inhibition for the input compound. Input: CC1(c2nnc(-c3cccc(Cl)c3)o2)CC(c2ccccc2)=NO1 (configuration not stated)
6.54

Returns the measured inhibition for the input compound. Input: "O=[N+]([O-])c1cc(Cc2ccccc2)cc(C=Nc2ccc(N3CCOCC3)cc2)c1O"
27.8

Returns the measured inhibition for the input compound. Input: "O=C(N/N=C/c1ccccc1)c1cccc2ccccc12"
7.64

Returns the measured inhibition for the input compound. Input: "CC(=C/c1ccccc1)/C=N/n1cnnc1"
-1.27

----------
Measured inhibition, listed per entry.
- system: Rac GTPase-activating protein 1 (Homo sapiens)
- assayProtocol: blockers of MgcRacGAP-driven Rac1 GTP hydrolysis – biochemical, ADP Hunter fluorescence, primary and confirmatory, confirmation (AID 624330);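 further: fluorescence reports GDP produced by GAP-driven GTP hydrolysis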
- conditionContext: MgcRacGAP-stimulated Rac1 GTP hydrolysis, at 30 µM, active compounds read high, GST-tagged Rac1 F28L mutant substrate
Among all 340,000 compounds or so, about 2,100 (0.62%) were called active. The list is a sample of the results. Results with a measured potency or affinity are listed apart.
Just the number in %, nothing appended.

Worked cases, answers included:
CC(C)(C)[C@@H]1C=C(C(N)=O)O[C@H](OCCCCO)C1	4.43
CCOc1ccc(NC(N)=O)cc1	2.99
CC(C)(C)n1cnc2cc(NCc3ccccc3O)ccc21	13.7

Returns the measured inhibition for the input compound. Input: CC(OC(=O)CC1CCCCC1)C(=O)Nc1ccc(S(N)(=O)=O)cc1 (stereo not given)
1.14

Returns the measured inhibition for the input compound. Input: "COc1ccc(NC(=O)CSc2nc3c(c(=O)n(C)c(=O)n3C)n2C)c(OC)c1"
4.73

----------
- system: Rac GTPase-activating protein 1 (Homo sapiens)
- assayProtocol: blockers of MgcRacGAP-driven Rac1 GTP hydrolysis – biochemical, ADP Hunter fluorescence, primary and confirmatory, confirmation (AID 624330);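 further: fluorescence reports GDP produced by GAP-driven GTP hydrolysis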
- conditionContext: MgcRacGAP-stimulated Rac1 GTP hydrolysis, at 30 µM, active compounds read high, GST-tagged Rac1 F28L mutant substrate
In all, about 340,000 compounds went through this assay and about 2,100 (0.62%) were called active. A selection follows. Results with a measured potency or affinity are listed apart.
measuredParameter: inhibition (%)
Just the number in %, nothing appended.

Worked cases, answers included:
COc1ccc(/C=C2\SC(N)=NC2=O)cc1Cl	1.73
C#CCOCCOCCOCCNc1nc(N2CCN(C(=O)C(Cc3cc4ccccc4[nH]3)n3cc(C(N)C(C)CC)nn3)CC2)nc(N2CCN(C(=O)C(Cc3cc4ccccc4[nH]3)n3cc(C(N)C(C)CC)nn3)CC2)n1 (stereo not drawn)	4.22
COc1ccc(/C=N/NC(=S)Nc2cccc(C(=O)O)c2)cc1OC	-9.15
COc1ccc(Br)cc1C(=O)NC(=S)Nc1ccc(Cl)c(C(=O)O)c1	5.62
Cc1ccc2oc(=O)c3cnn(CC(=O)N(CCCN4CCOCC4)Cc4ccco4)c3c2c1	5.12

Returns the measured inhibition for the input compound. Input: "COc1ccc(/C=C/C(=O)CCC(=O)O)cc1"
2.46

Returns the measured inhibition for the input compound. Input: "O=C(CN1CCN(C(c2ccccc2)c2ccccc2)CC1)NCc1ccccc1"
4.24

Returns the measured inhibition for the input compound. Input: "COc1ccc(CN2CCN(C(=O)c3cccnc3)CC2)cc1Br"
26.4

----------
Measured inhibition, listed per entry.
- system: Rac GTPase-activating protein 1 (Homo sapiens)
- assayProtocol: blockers of MgcRacGAP-driven Rac1 GTP hydrolysis – biochemical, ADP Hunter fluorescence, primary and confirmatory, confirmation (AID 624330);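 further: fluorescence reports GDP produced by GAP-driven GTP hydrolysis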
- conditionContext: MgcRacGAP-stimulated Rac1 GTP hydrolysis, at 30 µM, active compounds read high, GST-tagged Rac1 F28L mutant substrate
The whole screen tested about 340,000 compounds, of which about 2,100 (0.62%) were called active. The list is a sample of the results. Entries with a potency or affinity are not part of this list.
Just the number in %, nothing appended.

Worked cases, answers included:
O=C(CSCc1ccc(Cl)cc1)Nc1ccc2c(c1)OCCO2	5.15
CCN1C(=O)[C@@H]2[C@H](C1=O)[C@@H]1C(=O)Nc3ccccc3C(=O)N1[C@@H]2c1ccc(OC)cc1	3.37
O=C(CNC1CCCC1)Nc1ccc(S(=O)(=O)N2CCCCC2)cc1	3.94
CC1CCCCN1CC(=O)Nc1ccc2c(c1)OCO2 (centres undefined)	31
O=C1C2C3C=CC(C3)C2C(=O)N1Nc1c(Cl)cc(Cl)cc1Cl (centres undefined)	-1.67
Cc1cc2ncn(-c3ncnc4sc(C)c(C)c34)c2cc1C	6.72
CC1(C)O[C@@H]2[C@H](O1)[C@@H](COS(=O)(=O)O)O[C@H]2n1cnc2c(=O)[nH]cnc21	7.41
C/C(=N\NC(=O)c1cc(C)oc1C)c1ccc2c(c1)OCO2	6.44

Turning to the following molecule.
GET /values?readout=inhibition&system=Rac GTPase-activating protein 1 (Homo sapiens)&item= CC(=O)N1CCN(c2ccc([N+](=O)[O-])c(NCC3CCCO3)c2)CC1 (centres undefined)
7.45

----------
- system: Rac GTPase-activating protein 1 (Homo sapiens)
- assayProtocol: blockers of MgcRacGAP-driven Rac1 GTP hydrolysis – biochemical, ADP Hunter fluorescence, primary and confirmatory, confirmation (AID 624330);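 further: fluorescence reports GDP produced by GAP-driven GTP hydrolysis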
- conditionContext: MgcRacGAP-stimulated Rac1 GTP hydrolysis, at 30 µM, active compounds read high, GST-tagged Rac1 F28L mutant substrate
The whole screen tested about 340,000 compounds, of which about 2,100 (0.62%) were called active. A selection follows. Potency and affinity values are given separately.
measuredParameter: inhibition (%)
Just the number in %, nothing appended.

Returns the measured inhibition for the input compound. Input: "COc1ccc(N2CCN(Cc3cc4c(cc3Br)OCCO4)CC2)cc1"
4.68

Returns the measured inhibition for the input compound. Input: COc1ccc(C(=O)N2CCCC(Nc3ccc(C)c(C)c3)C2)cc1 (stereo unspecified)
16.9

Returns the measured inhibition for the input compound. Input: "CCOC(=O)N1CCC(N2Cc3cccc(C(=O)Nc4ccc(N(CC)CC)cc4C)c3C2=O)CC1"
-10.8

Returns the measured inhibition for the input compound. Input: "O=C(CN1CCCCC1)Nc1ccccc1"
-4.92

Returns the measured inhibition for the input compound. Input: CCC1Sc2ccccc2N(CC(=O)NC2CC2)C1=O (stereo unspecified)
-0.26

Returns the measured inhibition for the input compound. Input: "O=C(CNC1CCCCCC1)Nc1ccccc1N1CCCCC1"
8.73
